System: CAKI-1 renal
Method notes: NCI tumour cell line growth inhibition, 48 h; in the data active means GI50 below about 0.43 µM; inactive means the rest
Choose one outcome from this list and give only that: label 1 for active, label 0 for inactive

Examples with answers:
| Smiles entry | Label value |
| --- | --- |
| COc1cc(Nc2nccc(-c3cnn4ncccc34)n2)cc(OC)c1 | label 1 |
| Cn1cc(C2=C(c3cn(CCCN/C(N)=N\[N+](=O)[O-])c4ccccc34)C(=O)NC2=O)c2ccccc21 | label 0 |
| C=C(C=O)[C@@H]1CC=C(C=O)CC1 | label 0 |
| Cc1cnc2n(c1=O)Cc1ccccc1CO2 | label 0 |
| CN(Cc1cccc(Cl)c1)c1ccc(CO)c(Cl)c1 | label 0 |

Exam item: Please indicate how the test categorized `c1ccc(Oc2cnc3ccccc3n2)cc1` .
Marked response: label 0

Exam item: For `COc1ccc(-c2nn(C(=O)c3cc(OC)c(OC)c(OC)c3)c3cc(N)ccc23)cc1` , which call appears in the assay record?
Marked response: label 1

Exam item: Could you kindly confirm the outcome this assay logged for `COc1cccc(-c2nn(C)c3sc(C(=O)NCCN4CCN(c5ccccc5F)CC4)cc23)c1` ?
Marked response: label 0

Exam item: Per the records of this test, what outcome belongs to `CC/C(=C(/c1ccc(Cl)cc1)c1ccc(OCCCN(C)C)cc1)c1ccc(OC)cc1` ?
Marked response: label 0

Exam item: I would be grateful if you could indicate the recorded call for `Cc1nc(N(C)C)nc(-c2cccc(-c3ccn(CCN(C)C)n3)c2)c1C` .
Marked response: label 0

Exam item: How was `CCc1cc(Cc2cc(CC)cc(C(C)(C)C)c2O)c(O)c(C(C)(C)C)c1` classified in this test?
Marked response: label 0

====

// TGI lookup, one value per entry
Test system: ACHN renal
Method notes: NCI tumour cell line growth inhibition, 48 h

Here are 4 molecules together with their reported answers.
| Molecule | TGI |
| --- | --- |
| O=c1cc(/C=C/c2ccccc2)c2ccc(O/C(=C\c3ccccc3)c3nc4ccccc4c(=O)o3)cc2o1 | 61.7 µM |
| CC1(C)C(=O)C2(N)CCC1C2 (stereo not drawn) | > 100 µM |
| CC1(C)C/C=C\CCC(O)C(O)CCC(C)(C)C1=O (stereo not drawn) | > 100 µM |
| COc1cc(Cl)c(C)cc1NC(=O)c1cc2ccccc2cc1O | 11.4 µM |

Exam item: Give the measured TGI of CCN(CC)[C@@H]1c2cc3c(cc2C(c2cc(OC)c(O)c(OC)c2)C2C(=O)CO[C@@H]21)OCO3 (stereo partly drawn) .
Marked response: > 100 µM

Exam item: I am curious: what TGI value has been reported for `CC12CCC(C)(c3cc(O)c(O)cc31)c1cc(O)c(O)cc12` ?
Marked response: 32.5 µM

Exam item: Could you share which TGI value was measured for O=C1C2Cc3ccccc3CN2C(=O)N1CCN1CCOCC1 (stereo not drawn) ?
Marked response: > 100 µM

Exam item: Which TGI value is on record for `Cc1c(OCc2cccc3ccccc23)ccc2c(=O)cc(S)oc12` ?
Marked response: > 100 µM

Exam item: Query (molecule): CC1=NN(c2cccc(S(=O)(=O)O)c2)C2(C1)SCC(=O)N2c1nc2ccccc2s1 (stereo not drawn) ; field requested: TGI
Marked response: > 100 µM

Exam item: Which value of TGI has been reported for `COc1ccc(S(=O)(=O)Nc2c(/C=C\c3cc(OC)c(OC)c(OC)c3)ccc(OC)c2O)cc1OC` in the records?
Marked response: > 100 µM
